Give measured M1-2 Log2 Median Normalized for each item. Keep answers brief.
test system: intracellular proteome of ENR+CD and ENR organoids; experiment: LC-MS/MS TMT proteomics of ENR+CD versus ENR organoids; format: cell-based, C57BL/6 mice; conditions: protein abundance ratio ENR+CD versus ENR organoids, sample pair M1-2; LC-MS/MS TMT proteomics
The response must contain the number and no unit.

Please give the documented M1-2 Log2 Median Normalized of Q8K4R4 (protein, UniProt Q8K4R4 1-332, looked up, full-length) MLLKEYRICMPLTVDEYKIGQLYMISKHSHEQSDRGEGVEVVQNEPFEDPHHGNGQFTEKRVYLNSKLPSWARAVVPKIFYVTEKAWNYYPYTITEYTCSFLPKFSIHIETKYEDNKGSNDSIFDSEAKDLEREVCFIDIACDEIPERYYKESEDPKHFKSEKTGRGQLREGWRDNHQPIMCSYKLVTVKFEVWGLQTRVEQFVHKVVRDILLIGHRQAFAWVDEWYDMTMDEVREFERATQEATNKKIGVFPPAISISSIALLPSSVRSAPSSAPSTPLSTDAPEFLSIPKDRPRKKSAPETLTLPDPEKKATLNLPGVYTSEKPCRPKSE
0.913

Please indicate M1-2 Log2 Median Normalized recorded for Q9D1C1 (protein, UniProt Q9D1C1 1-179, looked up, full-length) MASQNRDPAAASVAAVRKGAEPCGGAARGPVGKRLQQELMILMTSGDKGISAFPESDNLFKWVGTIHGAAGTVYEDLRYKLSLEFPSGYPYNAPTVKFLTPCYHPNVDTQGNICLDILKDKWSALYDVRTILLSIQSLLGEPNIDSPLNTHAAELWKNPTAFKKYLQETYSKQVSSQDP
−0.925

Using the record for Q62395 (protein, UniProt Q62395 1-81, looked up, full-length) METRALWLMLLVVLVAGSSGIAADYVGLSPSQCMVPANVRVDCGYPSVTSEQCNNRGCCFDSSIPNVPWCFKPLQETECTF , state its measured M1-2 Log2 Median Normalized.
1.294
